All values here come from ChEMBL document CHEMBL6134862.

experimental-details: in vivo
protocol-conditions: Swiss outbred, mouse, po, 10 mg/kg
property-measured: Cmax at 24 h

Input line: Note down Cmax at 24 h recorded for `C=CCn1c(=O)c2cnc(Nc3ccc(N4CCN(C)CC4)cc3)nc2n1-c1cccc(C(C)(C)O)n1`
Output line: 26 nM

----------
experimental-details: physchem
protocol-conditions: buffer, pH 7.4
property-measured: chromatographic logD
Reply briefly: the number, and no unit.

Input line: Give the measured chromatographic logD for C=CCn1c(=O)c2cnc(Nc3ccc(N4CCN(C)CC4)cc3)nc2n1-c1cccc(C(C)(C)O)n1 [ADAVOSERTIB]
Output line: 3.4

----------
experimental-details: in vivo
protocol-conditions: Swiss outbred, mouse, iv, 3 mg/kg
property-measured: AUC(0-t) at 24 h (µM·h)
Please state the figure in µM·h; there is no need to write the unit.

Input line: Retrieve AUC(0-t) at 24 h measured for `C=CCn1c(=O)c2cnc(Nc3ccc(N4CCN(C)CC4)cc3)nc2n1-c1cccc(C(C)(C)O)n1` and print it.
Output line: 0.21

----------
experimental-details: in vivo
protocol-conditions: Swiss outbred, mouse, iv, 3 mg/kg
property-measured: Vd at 24 h (L/kg)
// note: answer is a bare numeric in L/kg

Input line: Name the recorded Vd at 24 h of the compound listed here: C=CCn1c(=O)c2cnc(Nc3ccc(N4CCN(C)CC4)cc3)nc2n1-c1cccc(C(C)(C)O)n1 [ADAVOSERTIB]
Output line: 1.27
